Below: a set of entries, each annotated with reported pKd.
Target: T1, PUF4 RNA-binding domain (Saccharomyces cerevisiae, UniProt P25339 537-888)
T1 sequence: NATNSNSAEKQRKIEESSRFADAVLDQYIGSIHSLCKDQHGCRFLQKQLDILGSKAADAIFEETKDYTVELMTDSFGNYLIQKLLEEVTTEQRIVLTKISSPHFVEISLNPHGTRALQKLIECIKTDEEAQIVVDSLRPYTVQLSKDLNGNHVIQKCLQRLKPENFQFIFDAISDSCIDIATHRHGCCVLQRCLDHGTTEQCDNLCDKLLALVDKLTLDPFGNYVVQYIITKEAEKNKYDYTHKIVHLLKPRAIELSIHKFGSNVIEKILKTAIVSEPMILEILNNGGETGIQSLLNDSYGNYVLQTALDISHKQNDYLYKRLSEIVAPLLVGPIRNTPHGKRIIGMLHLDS
Test: Mg; RNA-MaP; 20 mM Na-HEPES pH 7.4, 30 mM KOAc, 0.75 mM MgCl2, 0.1% Tween-20, 5% glycerol, 0.1 mg/mL BSA, 2 mM DTT; 25 C; 0.0125-409.6 nM protein
Conditions: tags: N-His6-TEV cleaved; C-SNAP kept, Cy3B-labelled; label: tethered on chip by stalled RNA polymerase
Worth noting: pKd values are minus log10 of concentrations stated in mol/L.

> print(dat)
                                     binder  quantity.name  value.measured
1  UCUCUUACUAUAUAUACUUCUCUU (ssRNA) [Id_ii_S1_P3E.3_K3.2_C3.2_[C-2A]_[T-1C]_H3.2_A3.1_F3.1_T3.2_[T9C]_[A10T]]            pKd            6.04
2  UCUCUUAGUGUAUAUAUUUCUCUU (ssRNA) [Id_ii_S1_P3E.2_K3.1_C3.2_[C-2A]_[T-1G]_H3.1_A3.1_F3.1_T3.2_[A10T]]            pKd            8.00
3  ACAAACCGUAUAAUUAACAAAC (ssRNA) [Ib_S3_P5E.1_K5.1_C5.1_H5.1_[T1C]_A5.1_[T6A]_F5.1_T5.1]            pKd            5.93

As a next step, examine the binder that follows.
Can you share its pKd? I mean this binder: UCUCUUUGUAUCCACUCUCUU (ssRNA) [Ic_S1_P4E.1_K4.1_C4.1_H4.1_A4.1_[A6C]_[T7C]_F4.1_[T8A]_[A9C]_T4.1]
6.01
